- Tested on: P12-Ichikawa
- Method summary: AUC of viability dose-response curve (% viability x log10 dose units); higher = less sensitive
- Condition: RPMI 5 mM glucose + 10% FBS; 48 h
Classify: Satisfied when AUC of viability dose-response curve is strictly less than 400; Not satisfied when AUC of viability dose-response curve is not.

Is it true that AUC of viability dose-response curve reported for "C=CCc1ccc(O)c(-c2ccc(O)c(CC=C)c2)c1" is less than 400? Satisfied

Is it true that AUC of viability dose-response curve reported for "N#C[C@H](O[C@@H]1O[C@H](CO[C@@H]2O[C@H](CO)[C@@H](O)[C@H](O)[C@H]2O)[C@@H](O)[C@H](O)[C@H]1O)c1ccccc1" is less than 400? Not satisfied

Is it true that AUC of viability dose-response curve reported for "Nc1ncnc2c1nc(Cl)n2[C@@H]1O[C@H](CO)[C@@H](O)[C@H]1O" is less than 400? Not satisfied

Is it true that AUC of viability dose-response curve reported for "COc1cccc2c1[C@]13CCN(CC4CC4)[C@H](C2)[C@]1(OC)CCC(=O)C3" is less than 400? Not satisfied

Is it true that AUC of viability dose-response curve reported for "CC(C)[C@H](N)C(=O)OCCOC[N]1C=NC2=C1\N=C(N)/NC2=O" is less than 400? Not satisfied

====

- Test system: SEM cells
- Method summary: cell viability relative to DMSO control; higher = less cytotoxic
- Condition: RPMI 5 mM glucose + 10% FBS; 48 h; 0.0211 µM
Examples of compounds with documented cell viability follow.
Unit % implied. Number only.

Below are worked cases with known answers.
CCN1CCCC1CNC(=O)c1cc([S+](N)(=O)[O-])ccc1OC (stereo not drawn)
92.4
CCN(c1ccccc1)c1cc(NC)[n+](C)c(C)n1
105
Cc1noc(-c2ccc(CSCCC(=O)O)cc2)c1NC(=O)OC(C)c1ccccc1Cl (stereo not drawn)
94.5
C[C@](N)(Cc1ccc(O)c(O)c1)C(=O)O
111
CN(C)C(=O)C(CCN1CCC(O)(c2ccc(Cl)cc2)CC1)(c1ccccc1)c1ccccc1
127
CO/N=C(\C(=O)N[C@@H]1C(=O)N2C(C(=O)OCOC(=O)C(C)(C)C)=C(/C=C\c3scnc3C)CS[C@H]12)c1csc(N)n1
76.6
CN(C)C1=C(Br)C=C(C=C1)C\2NC3=C(\C4=C2C(=O)CC(C)(C)C4)C5=CC=CC=C5C=C3 (stereo not drawn)
121

Next compound, please.
What measured cell viability is associated with "COc1ccc2cc1Oc1ccc(cc1)C[C@H]1c3cc(c(OC)cc3CCN1C)Oc1c(OC)c(OC)cc3c1[C@H](C2)N(C)CC3" on SEM cells? 144

====

Examples of compounds with documented AUC of viability dose-response curve follow.
- Test system: NOMO1
- Method summary: AUC of viability dose-response curve (% viability x log10 dose units); higher = less sensitive
- Condition: RPMI 5 mM glucose + 10% FBS; 48 h
Number, no unit, nothing else.

What measured AUC of viability dose-response curve is associated with "C[C@](N)(Cc1ccc(O)c(O)c1)C(=O)O" on NOMO1? 387

====

- System: P12-Ichikawa
- Method summary: cell viability relative to DMSO control; higher = less cytotoxic
- Condition: RPMI 5 mM glucose + 10% FBS; 48 h; 1.71 µM
Assay endpoint: cell viability (%)
Unit % implied. Number only.

Below are worked cases with known answers.
N#C[C@H](O[C@@H]1O[C@H](CO[C@@H]2O[C@H](CO)[C@@H](O)[C@H](O)[C@H]2O)[C@@H](O)[C@H](O)[C@H]1O)c1ccccc1
88.4
Cc1nc(Nc2n[nH]c3c2CN(C(=O)N[C@H](CN(C)C)c2ccccc2)C3(C)C)c2sccc2n1
38.5

Next compound, please.
What value of cell viability has been recorded for this entry: "COC(=O)\C1=C\CCN(C)C1" 115

Reference source: the supplement of paper PMC11451515
